# Tested target: ATX (Homo sapiens, UniProt Q13822)
# Construct: conditioned serum-free medium (CCM) from MDA-MB-435 cells as the source of ATX; endogenous in cells; host or cells: MDA-MB-435 cells (about 10x concentrated conditioned serum-free medium)
# Measurement protocol: ATX inhibition assay (FS-3 substrate)
# Format: biochemical
# Recorded conditions: Calculated IC50 data for the 30 active compounds; FS-3 substrate
Quantity kind: IC50 (µM)

{"columns": ["Smiles", "Quantity kind", "Quantitative result"],
 "data": [
  ["COc1cc(N=Nc2c(S(=O)(=O)O)cc3cc(NC(=O)Nc4ccc5c(O)c(N=Nc6ccc7cc(S(=O)(=O)O)ccc7c6)c(S(=O)(=O)O)cc5c4)ccc3c2O)c(C)cc1N", "IC50", 13.8],
  ["Cc1cc(-c2ccc(N=Nc3c(N)c(S(=O)(=O)O)cc4cc(S(=O)(=O)O)ccc34)c(C)c2)ccc1N=Nc1cc(S(=O)(=O)O)c2ccccc2c1N", "IC50", 13.4],
  ["Cc1ccc(N=Nc2c(S(=O)(=O)[O-])cc3cc(NC(=O)Nc4ccc5c(O)c(N=Nc6ccc7cc(S(=O)(=O)[O-])ccc7c6)c(S(=O)(=O)[O-])cc5c4)ccc3c2O)c(C)c1.[Na+].[Na+].[Na+]", "IC50", 18.6]
]}

###

# Tested target: ATX (Homo sapiens)
# Construct: conditioned serum-free medium (CCM) from MDA-MB-435 cells as the source of ATX; endogenous in cells; host or cells: MDA-MB-435 cells (about 10x concentrated conditioned serum-free medium)
# Measurement protocol: ATX inhibition assay (FS-3 substrate)
# Assay type: biochemical
# Recorded conditions: preliminary screen; FS-3 hydrolysis at one hour, normalized to vehicle control, mean±S.D.; same values given at 10 μM in Table 5
Quantity kind: % Response (%)

P. Cc1cc(C)c(N=Nc2cc(C)c(N=Nc3c(S(=O)(=O)[O-])cc4cc(Nc5ccccc5)ccc4c3O)cc2C)c(S(=O)(=O)[O-])c1.[Na+].[Na+]
Q. Cc1ccc(C)c(N=Nc2c(S(=O)(=O)O)cc3cc(NC(=O)Nc4ccc5c(O)c(N=Nc6ccc7cc(S(=O)(=O)O)ccc7c6)c(S(=O)(=O)O)cc5c4)ccc3c2O)c1.[Na+]
Choose between P and Q : whose measured % Response value is numerically larger? # answer = label of selected item
P

###

# Tested target: ATX (Homo sapiens)
# Construct: conditioned serum-free medium (CCM) from MDA-MB-435 cells as the source of ATX; endogenous in cells; host or cells: MDA-MB-435 cells (about 10x concentrated conditioned serum-free medium)
# Measurement protocol: ATX inhibition assay (FS-3 substrate)
# Format: biochemical
# Recorded conditions: preliminary screen; FS-3 hydrolysis at one hour, normalized to vehicle control, mean±S.D.; same values given at 10 μM in Table 5
# Description: ATX inhibition was assayed using the substrate FS-3 (Echelon Biosciences, Inc., Salt Lake City, Utah, USA). […] All assays were performed in 96-well plates with data read at 1 minute intervals by a Synergy2 system (BioTek, Winooski, Vt.). The fluorescence produced upon the hydrolysis of FS-3 was monitored using an excitation wavelength of 485 nm and an emission wavelength of 528 nm at 37° C. […] All readings were normalized to vehicle control after subtraction of fluorescence in the absence of CCM. […]
Quantity kind: % Response (%)

{"columns": ["Compound", "Quantity kind", "Uom", "Quantitative result"],
 "data": [
  ["O=C(NC(CSSCC(NC(=O)c1ccc([N+](=O)[O-])cc1)C(=O)O)C(=O)O)c1ccc([N+](=O)[O-])cc1 (stereo not shown)", "% Response", "%", 95],
  ["Cc1ccc(C(=O)Nc2ccc(S(=O)(=O)O)c3cc(S(=O)(=O)O)cc(S(=O)(=O)O)c23)cc1NC(=O)c1cccc(NC(=O)Nc2cccc(C(=O)Nc3cc(C(=O)Nc4ccc(S(=O)(=O)O)c5cc(S(=O)(=O)O)cc(S(=O)(=O)O)c45)ccc3C)c2)c1.Cc1ccc(C)c2c1c(NCCCCCCNc1cc(C)[n+](C)c3c(C)ccc(C)c13)cc(C)[n+]2C", "% Response", "%", 94]
]}

a. Cc1c(N)cc(S(=O)(=O)O)c(N=Nc2ccc(-c3ccc(N=Nc4c(S(=O)(=O)O)cc5cc(S(=O)(=O)O)c(N=Nc6cccc([N+](=O)[O-])c6)c(N)c5c4O)cc3)cc2)c1N.[Na+]
b. Nc1c(S(=O)(=O)[O-])cc2cc(S(=O)(=O)[O-])ccc2c1N=Nc1ccc(-c2ccc(N=Nc3c(N)c(S(=O)(=O)[O-])cc4cc(S(=O)(=O)[O-])ccc34)c(S(=O)(=O)[O-])c2)cc1.[Na+].[Na+].[Na+].[Na+].[Na+]
Select one. Lower % Response: a or b Returns: label corresponding to the selected item.
a
(a: 32%, b: 49%)

###

# Tested target: ATX (Homo sapiens, UniProt Q13822)
# Construct: conditioned serum-free medium (CCM) from MDA-MB-435 cells as the source of ATX; endogenous in cells; host or cells: MDA-MB-435 cells (about 10x concentrated conditioned serum-free medium)
# Measurement protocol: ATX inhibition assay (FS-3 substrate)
# Type: biochemical
# Recorded conditions: preliminary screen; FS-3 hydrolysis at one hour, normalized to vehicle control, mean±S.D.; same values given at 10 μM in Table 5
Quantity kind: % Response (%)

Examples with their reported % Response follow.
{"columns": ["Compound", "Uom", "Quantitative result"],
 "data": [
  ["COc1nc(Nc2ccc(/C=C/c3ccc(Nc4nc(OC)nc(N(CCO)CCO)n4)cc3S(=O)(=O)[O-])c(S(=O)(=O)[O-])c2)nc(N(CCO)CCO)n1.[Na+].[Na+]", "%", 94],
  ["Nc1c(N=Nc2ccc([N+](=O)[O-])cc2)c(S(=O)(=O)O)cc2cc(S(=O)(=O)O)c(N=Nc3ccc([N+](=O)[O-])cc3)c(O)c12.[Na+]", "%", 76],
  ["Cc1cc(C(O)(c2ccc(Nc3ccccc3)cc2)c2ccc(Nc3ccc(S(=O)(=O)O)cc3)cc2)ccc1N.[Na+] (centres unmarked)", "%", 39],
  ["Cc1cc(N=Nc2ccc(S(=O)(=O)[O-])cc2)c(N)c(N=Nc2ccc(S(=O)(=O)[O-])cc2)c1N.[Na+].[Na+]", "%", 71]
]}

A. Nc1cccc(N=Nc2c(S(=O)(=O)[O-])cc3cc(Nc4ccc5c(O)c(N=Nc6cccc(N)c6)c(S(=O)(=O)[O-])cc5c4)ccc3c2O)c1.[Na+].[Na+] [compound 51533]
B. O=S(=O)(c1ccc(NC(C(O)C(O)C(O)C(O)CO)S(=O)(=O)O)cc1)c1ccc(NC(C(O)C(O)C(O)C(O)CO)S(=O)(=O)O)cc1 (centres unmarked)
C. COc1ccccc1N=Nc1c(S(=O)(=O)O)cc2cc(NC(=O)Nc3ccc4c(O)c(N=Nc5c(N)ccc6cc(S(=O)(=O)O)ccc56)c(S(=O)(=O)O)cc4c3)ccc2c1O
Order the records by % Response, with each subsequent value no larger than the one before. Please list the labels according to the requested order.
B, A, C
(B: 98%, A: 67%, C: 16%)

###

# Tested target: ATX (Homo sapiens, UniProt Q13822)
# Construct: conditioned serum-free medium (CCM) from MDA-MB-435 cells as the source of ATX; endogenous in cells; host or cells: MDA-MB-435 cells (about 10x concentrated conditioned serum-free medium)
# Measurement protocol: ATX inhibition assay (FS-3 substrate)
# Assay type: biochemical
# Recorded conditions: FS-3 substrate
pIC50: −log10 of the molar value.
Quantity kind: pIC50

a. Nc1ccc(/N=N/c2ccc(-c3ccc(/N=N/c4c(S(=O)(=O)O)cc5cc(S(=O)(=O)O)c(/N=N/c6ccc([N+](=O)[O-])cc6)c(N)c5c4O)cc3)cc2)c2ccc(S(=O)(=O)O)cc12
b. CC(C)(C)OC(=O)NC(CC(Cc1ccccc1)C(=O)O)C(=O)NC(CC(Cc1ccccc1)C(=O)O)C(=O)NC(CC(Cc1ccccc1)C(=O)O)C(=O)NCC(=O)Oc1ccc([N+](=O)[O-])cc1 (centres unmarked)
Identify the item whose pIC50 is the smaller number: a or b Which one? Tell me its label.
a

###

As shown below, each of these compounds has a reported % Response value.
# Tested target: ATX (Homo sapiens, UniProt Q13822)
# Construct: conditioned serum-free medium (CCM) from MDA-MB-435 cells as the source of ATX; endogenous in cells; host or cells: MDA-MB-435 cells (about 10x concentrated conditioned serum-free medium)
# Measurement protocol: ATX inhibition assay (FS-3 substrate)
# Assay type: biochemical
# Recorded conditions: preliminary screen; FS-3 hydrolysis at one hour, normalized to vehicle control, mean±S.D.; same values given at 10 μM in Table 5
Write the answer as a number in %, unit excluded.

{"columns": ["Compound", "Quantitative result"],
 "data": [
  ["CC1=NN(c2ccc(/C=C/c3ccc(NC(=O)Nc4ccc(/C=C/c5ccc(N6N=C(C)C(N=Nc7ccccc7C(=O)O)C6=O)cc5S(=O)(=O)O)c(S(=O)(=O)O)c4)cc3S(=O)(=O)O)c(S(=O)(=O)O)c2)C(=O)C1N=Nc1ccccc1C(=O)O.[Na+] (centres unmarked) [compound 34937]", 87]
]}

Next:
% Response in this record for O=C(Nc1ccc(C(=O)Nc2cc(S(=O)(=O)O)cc3cccc(S(=O)(=O)O)c23)cc1)Nc1ccc(C(=O)Nc2cc(S(=O)(=O)O)cc3cccc(S(=O)(=O)O)c23)cc1.[Na+] [compound 12188] : 105

Where these numbers come from: patent US8343934B2
